# method_notes: NCI Yeast Anticancer Drug Screen. Data for the bub3 strain (AID 167)
# experimental_conditions: S. cerevisiae bub3 mutant strain, at 5.0 µM (retest, dose inferred, filed as 0.5), hits give high values
About 79,000 compounds went through this panel and 15% of them were active in at least one assay; those are over-represented in the sample as a whole.
property: growth inhibition (%)
Numbers only; they are read as %.

Observe how each entry below is paired with its result.
molecule="CCCC(C)c1ccccc1OP(=S)(S)Oc1ccccc1C(C)CCC (stereo not given)" number=-5
molecule=CN(CCCl)c1ccc(/C=C/C2=[N+](C)c3ccccc3C2(C)C)cc1 number=-3
molecule=N#CC(C#N)=Cc1ccc(Cl)o1 number=-2
molecule=C1=C(/C=C2\CCCc3c(-c4ccccc4)cc(-c4ccccc4)[o+]c32)CCC/C1=C\C1=C2OC(c3ccccc3)=CC(c3ccccc3)=C2CCC1 number=10

Consider the additional molecule presented here.
# lookup: growth inhibition of CC12CCC3C(CCC4Cc5nc6nnnn6cc5CC43C)C1CCC2O (stereo not given)
2
